Reference source: ChEMBL document CHEMBL5058577

System: HEK-293T
Experiment: Multiplex assay against HEK293T
Assay type: toxicity, cell-based
Settings: human, 12 h, 10 µM, compound concentration 10 uM, replicate 1

compound	Population Mitotic Cells (%)
O=C(CCCc1ccccc1)Nc1nc2ccccc2c(=O)s1	69
Cc1onc(-c2ccccc2Cl)c1C(=O)N(C)c1ccc(Cl)cc1	61
COC[C@@H](c1ccc(C(F)(F)F)cc1)N1CCN(C2(C)CCN(C(=O)c3c(C)ncnc3C)CC2)C[C@@H]1C.O=C(O)/C=C\C(=O)O [VICRIVIROC MALEATE]	55
CC(=O)Nc1cccc2c1c(Sc1ccc(Cl)cc1)c(C)n2CC(=O)O	61
Cl.NCCc1ccc(O)c(O)c1 [DOPAMINE HYDROCHLORIDE]	53
Cc1cccc(NC(=O)CN2CCC(c3ccccn3)CC2)c1.Cl.Cl	38
N#Cc1c(Oc2cccc(OS(=O)(=O)CCCC(F)(F)F)c2)cccc1C(F)(F)F	57
COc1ccccc1N1CCN(C[C@@H](C(=O)NC(C)(C)C)c2ccccc2)CC1.Cl.Cl	37
COc1cccc2c1c(NS(=O)(=O)c1ccc(Cl)s1)nn2Cc1cccc(CNC(=O)C(C)(C)O)c1	57
CCCCC1=NC2(CCCC2)C(=O)N1Cc1ccc(-c2ccccc2-c2nnn[nH]2)cc1	50
CCc1cc2cc(NS(=O)(=O)c3ccc(C#N)cc3)ccc2n(CC)c1=O	61
NCCc1cn(S(=O)(=O)c2c(Cl)nc3sccn23)c2ccccc12.O=C(O)C(=O)O	36
CC(C)c1noc(N2CCC(COc3ccc(-c4ccc(S(C)(=O)=O)cc4)nc3)CC2)n1	50
O=C1[C@H](Cc2ccc(O)cc2)N2C(=O)CCN(C(=O)NCc3ccccc3)[C@H]2CN1Cc1cccc2ccccc12	31
Br.CS(=O)(=O)Nc1c(O)ccc2c1CCCC2C1=NCCN1 (stereo not given)	52
CN(C)C(=O)Cn1cc(-c2ccc(-c3cncc4ccccc34)cc2)cn1	51
Cl.N=C(N)NC(=O)Cc1c(Cl)cccc1Cl [GUANFACINE HYDROCHLORIDE]	47
CCCOc1ccc2[nH]cc(C3=CCNCC3)c2n1.Cl	56
N#Cc1cc(F)cc(-c2nc(-c3ccc(F)cn3)no2)c1	55
Cc1cnc(-c2cc(N3CCN(C(=O)CCS(C)(=O)=O)CC3)ncc2Cl)c(C)c1	57

----------
Test system: HEK-293T
Assay: Multiplex assay against HEK293T
Assay type: toxicity, cell-based
Details: human, 24 h, 1 µM, compound concentration 1 uM, replicate 2
measured-attribute: Population Mitotic Cells (%)

compound	measured-attribute	value-measured
NCCc1cn(S(=O)(=O)c2c(Cl)nc3sccn23)c2ccccc12.O=C(O)C(=O)O	Population Mitotic Cells (%)	58
Cl.N=C(N)NC(=O)Cc1c(Cl)cccc1Cl [GUANFACINE HYDROCHLORIDE]	Population Mitotic Cells (%)	50
C[C@H](N)COC(=O)[C@@H](CCCCN)NC(=O)Cc1c(-c2ccc3ccccc3c2)[nH]c2c1ccc1ccccc12	Population Mitotic Cells (%)	45
CC(C)c1noc(N2CCC(COc3ccc(-c4ccc(S(C)(=O)=O)cc4)nc3)CC2)n1	Population Mitotic Cells (%)	74
CCCOc1ccc2[nH]cc(C3=CCNCC3)c2n1.Cl	Population Mitotic Cells (%)	64

----------
Tested on: Fibroblast
Assay: Multiplex assay against human fibroblast
Format: toxicity, cell-based
Settings: 12 h, 10 µM, compound concentration 10 uM, replicate 1
So basically: Population Tubulin-Different-Phenotype (%) at 30% or higher? That is Met. Lower than 30%? That is Not met.

compound	class-name
CC(C)COc1ccc(CNC(=O)N(Cc2ccc(F)cc2)C2CCN(C)CC2)cc1 [PIMAVANSERIN]	Met
COc1ccccc1N1CCN(C[C@@H](C(=O)NC(C)(C)C)c2ccccc2)CC1.Cl.Cl	Met
CCc1cc2cc(NS(=O)(=O)c3ccc(C#N)cc3)ccc2n(CC)c1=O	Met
Cc1c(CC(=O)O)c2cccnc2n1Cc1ccc(S(C)(=O)=O)cc1C(F)(F)F [FEVIPIPRANT]	Not met
C[C@H](N)COC(=O)[C@@H](CCCCN)NC(=O)Cc1c(-c2ccc3ccccc3c2)[nH]c2c1ccc1ccccc12	Met
CCCCCC(O)/C=C/[C@H]1C(=O)CC(O)C1C/C=C\CCCC(=O)O (stereo partly drawn)	Not met
COC[C@@H](c1ccc(C(F)(F)F)cc1)N1CCN(C2(C)CCN(C(=O)c3c(C)ncnc3C)CC2)C[C@@H]1C.O=C(O)/C=C\C(=O)O [VICRIVIROC MALEATE]	Met
O=C(NCCN1CCC(n2c(=O)[nH]c3cc(Cl)ccc32)CC1)c1ccc(F)cc1 [HALOPEMIDE]	Met
Cc1onc(-c2ccccc2Cl)c1C(=O)N(C)c1ccc(Cl)cc1	Not met
COc1cccc2c1c(NS(=O)(=O)c1ccc(Cl)s1)nn2Cc1cccc(CNC(=O)C(C)(C)O)c1	Met
N#Cc1c(Oc2cccc(OS(=O)(=O)CCCC(F)(F)F)c2)cccc1C(F)(F)F	Met
CC(/C=C1\SC(=S)N(CCCC(=O)Nc2ccc(C(=O)O)c(O)c2)C1=O)=C\c1ccccc1	Met
CC[C@@H](C)Nc1nc(C)nc2c(-c3ccc(OC)nc3C)c(C)nn12 [PEXACERFONT]	Met
O=C(CCCc1ccccc1)Nc1nc2ccccc2c(=O)s1	Not met
CC(C)c1noc(N2CCC(COc3ccc(-c4ccc(S(C)(=O)=O)cc4)nc3)CC2)n1 [GSK-1292263]	Met
Cc1noc(-c2ccc(-c3ccc(CC(=O)O)cc3)cc2)c1NC(=O)O[C@H](C)c1ccccc1Cl	Met
Cl.NCCc1ccc(O)c(O)c1 [DOPAMINE HYDROCHLORIDE]	Not met
CN1CCN(c2cc(-c3ccccc3)nc(N)n2)CC1	Met

----------
# Population Healthy Nuclei (%) per entry
Tested on: U2OS
Assay: Multiplex assay against U2OS
Format: toxicity, cell-based
Details: human, 48 h, 1 µM, compound concentration 1 uM, replicate 2
measured-attribute: Population Healthy Nuclei (%)

molecule	value-measured
CN(C)C(=O)Cn1cc(-c2ccc(-c3cncc4ccccc34)cc2)cn1	67
COC[C@@H](c1ccc(C(F)(F)F)cc1)N1CCN(C2(C)CCN(C(=O)c3c(C)ncnc3C)CC2)C[C@@H]1C.O=C(O)/C=C\C(=O)O [VICRIVIROC MALEATE]	62
N#Cc1cc(F)cc(-c2nc(-c3ccc(F)cn3)no2)c1	79
NCCc1cn(S(=O)(=O)c2c(Cl)nc3sccn23)c2ccccc12.O=C(O)C(=O)O	66
CC(/C=C1\SC(=S)N(CCCC(=O)Nc2ccc(C(=O)O)c(O)c2)C1=O)=C\c1ccccc1	79
CN1CCN(c2cc(-c3ccccc3)nc(N)n2)CC1	75
CCc1cc2cc(NS(=O)(=O)c3ccc(C#N)cc3)ccc2n(CC)c1=O	73
O=C(CCCc1ccccc1)Nc1nc2ccccc2c(=O)s1	71
CCCOc1ccc2[nH]cc(C3=CCNCC3)c2n1.Cl	74
Cc1noc(-c2ccc(-c3ccc(CC(=O)O)cc3)cc2)c1NC(=O)O[C@H](C)c1ccccc1Cl	72
CC(C)(C)c1cc(NC(=O)Nc2ccc(-c3cn4c(n3)sc3cc(OCCN5CCOCC5)ccc34)cc2)no1	72
Br.CS(=O)(=O)Nc1c(O)ccc2c1CCCC2C1=NCCN1 (centres undefined)	76
Cc1cnc(-c2cc(N3CCN(C(=O)CCS(C)(=O)=O)CC3)ncc2Cl)c(C)c1	73
CC[C@@H](C)Nc1nc(C)nc2c(-c3ccc(OC)nc3C)c(C)nn12	73

----------
# Population Membrane Permeable-Phenotype (%) per entry
System: HEK-293T
Test: Multiplex assay against HEK293T
Format: toxicity, cell-based
Details: human, 24 h, 10 µM, compound concentration 10 uM, replicate 2
measured-attribute: Population Membrane Permeable-Phenotype (%)

compound	unit-spec	value-measured
CCCCC1=NC2(CCCC2)C(=O)N1Cc1ccc(-c2ccccc2-c2nnn[nH]2)cc1	%	0
Cc1noc(-c2ccc(-c3ccc(CC(=O)O)cc3)cc2)c1NC(=O)O[C@H](C)c1ccccc1Cl	%	0
CC[C@@H](C)Nc1nc(C)nc2c(-c3ccc(OC)nc3C)c(C)nn12	%	0
CCc1cc2cc(NS(=O)(=O)c3ccc(C#N)cc3)ccc2n(CC)c1=O	%	1
Cc1onc(-c2ccccc2Cl)c1C(=O)N(C)c1ccc(Cl)cc1	%	0
O=C(NCCN1CCC(n2c(=O)[nH]c3cc(Cl)ccc32)CC1)c1ccc(F)cc1 [HALOPEMIDE]	%	0

----------
Test system: U2OS
Test: Multiplex assay against U2OS
Assay type: toxicity, cell-based
Details: human, 48 h, 10 µM, compound concentration 10 uM, replicate 1
# Population Fragmented Nuclei (%) per entry

compound	Population Fragmented Nuclei (%)
CC[C@@H](C)Nc1nc(C)nc2c(-c3ccc(OC)nc3C)c(C)nn12	17
Cc1c(CC(=O)O)c2cccnc2n1Cc1ccc(S(C)(=O)=O)cc1C(F)(F)F	17
Cl.NCCc1ccc(O)c(O)c1 [DOPAMINE HYDROCHLORIDE]	18
CCCCC1=NC2(CCCC2)C(=O)N1Cc1ccc(-c2ccccc2-c2nnn[nH]2)cc1	14
Cc1cnc(-c2cc(N3CCN(C(=O)CCS(C)(=O)=O)CC3)ncc2Cl)c(C)c1	11
N#Cc1cc(F)cc(-c2nc(-c3ccc(F)cn3)no2)c1	30
Cc1cccc(NC(=O)CN2CCC(c3ccccn3)CC2)c1.Cl.Cl	29
NCCc1cn(S(=O)(=O)c2c(Cl)nc3sccn23)c2ccccc12.O=C(O)C(=O)O	37
CCCCCC(O)/C=C/[C@H]1C(=O)CC(O)C1C/C=C\CCCC(=O)O (stereo partly drawn)	23
Cc1sc2c(c1C)C(c1ccc(Cl)cc1)=N[C@@H](CC(=O)NCCCCCCCCNC(=O)COc1cccc3c1C(=O)N(C1CCC(=O)NC1=O)C3=O)c1nnc(C)n1-2 (stereo partly drawn)	36
CCCOc1ccc2[nH]cc(C3=CCNCC3)c2n1.Cl	18
CC(C)COc1ccc(CNC(=O)N(Cc2ccc(F)cc2)C2CCN(C)CC2)cc1	38
O=C1[C@H](Cc2ccc(O)cc2)N2C(=O)CCN(C(=O)NCc3ccccc3)[C@H]2CN1Cc1cccc2ccccc12	37
COC[C@@H](c1ccc(C(F)(F)F)cc1)N1CCN(C2(C)CCN(C(=O)c3c(C)ncnc3C)CC2)C[C@@H]1C.O=C(O)/C=C\C(=O)O [VICRIVIROC MALEATE]	19
Cc1onc(-c2ccccc2Cl)c1C(=O)N(C)c1ccc(Cl)cc1	22
CCc1cc2cc(NS(=O)(=O)c3ccc(C#N)cc3)ccc2n(CC)c1=O	18
CC(=O)Nc1cccc2c1c(Sc1ccc(Cl)cc1)c(C)n2CC(=O)O	18
O=C(CCCc1ccccc1)Nc1nc2ccccc2c(=O)s1	20
CN1CCN(c2cc(-c3ccccc3)nc(N)n2)CC1	19
CCCCC(=O)N(Cc1ccc(-c2ccccc2-c2nnn[nH]2)cc1)[C@H](C(=O)O)C(C)C	22
Br.CS(=O)(=O)Nc1c(O)ccc2c1CCCC2C1=NCCN1 (stereo not drawn)	23
CN[C@@H](C)C(=O)N[C@H](C(=O)N1CCC[C@H]1C(=O)Nc1snnc1-c1ccccc1)C1CCCCC1	47
CC(C)(C)c1cc(NC(=O)Nc2ccc(-c3cn4c(n3)sc3cc(OCCN5CCOCC5)ccc34)cc2)no1	33
CC(/C=C1\SC(=S)N(CCCC(=O)Nc2ccc(C(=O)O)c(O)c2)C1=O)=C\c1ccccc1	19
Cc1noc(-c2ccc(-c3ccc(CC(=O)O)cc3)cc2)c1NC(=O)O[C@H](C)c1ccccc1Cl	19
N#Cc1c(Oc2cccc(OS(=O)(=O)CCCC(F)(F)F)c2)cccc1C(F)(F)F	23
Cl.N=C(N)NC(=O)Cc1c(Cl)cccc1Cl [GUANFACINE HYDROCHLORIDE]	21
C[C@H](N)COC(=O)[C@@H](CCCCN)NC(=O)Cc1c(-c2ccc3ccccc3c2)[nH]c2c1ccc1ccccc12	14
CN(C)C(=O)Cn1cc(-c2ccc(-c3cncc4ccccc34)cc2)cn1	22
CC(C)c1noc(N2CCC(COc3ccc(-c4ccc(S(C)(=O)=O)cc4)nc3)CC2)n1	22
O=C(NCCN1CCC(n2c(=O)[nH]c3cc(Cl)ccc32)CC1)c1ccc(F)cc1 [HALOPEMIDE]	15
COc1cccc2c1c(NS(=O)(=O)c1ccc(Cl)s1)nn2Cc1cccc(CNC(=O)C(C)(C)O)c1	20
COc1ccccc1N1CCN(C[C@@H](C(=O)NC(C)(C)C)c2ccccc2)CC1.Cl.Cl	33
